- TARGET ENTITY: Metabotropic glutamate receptor 8 (Rattus norvegicus) (UniProt P70579)
- Sequence (P70579 whole entry, looked up): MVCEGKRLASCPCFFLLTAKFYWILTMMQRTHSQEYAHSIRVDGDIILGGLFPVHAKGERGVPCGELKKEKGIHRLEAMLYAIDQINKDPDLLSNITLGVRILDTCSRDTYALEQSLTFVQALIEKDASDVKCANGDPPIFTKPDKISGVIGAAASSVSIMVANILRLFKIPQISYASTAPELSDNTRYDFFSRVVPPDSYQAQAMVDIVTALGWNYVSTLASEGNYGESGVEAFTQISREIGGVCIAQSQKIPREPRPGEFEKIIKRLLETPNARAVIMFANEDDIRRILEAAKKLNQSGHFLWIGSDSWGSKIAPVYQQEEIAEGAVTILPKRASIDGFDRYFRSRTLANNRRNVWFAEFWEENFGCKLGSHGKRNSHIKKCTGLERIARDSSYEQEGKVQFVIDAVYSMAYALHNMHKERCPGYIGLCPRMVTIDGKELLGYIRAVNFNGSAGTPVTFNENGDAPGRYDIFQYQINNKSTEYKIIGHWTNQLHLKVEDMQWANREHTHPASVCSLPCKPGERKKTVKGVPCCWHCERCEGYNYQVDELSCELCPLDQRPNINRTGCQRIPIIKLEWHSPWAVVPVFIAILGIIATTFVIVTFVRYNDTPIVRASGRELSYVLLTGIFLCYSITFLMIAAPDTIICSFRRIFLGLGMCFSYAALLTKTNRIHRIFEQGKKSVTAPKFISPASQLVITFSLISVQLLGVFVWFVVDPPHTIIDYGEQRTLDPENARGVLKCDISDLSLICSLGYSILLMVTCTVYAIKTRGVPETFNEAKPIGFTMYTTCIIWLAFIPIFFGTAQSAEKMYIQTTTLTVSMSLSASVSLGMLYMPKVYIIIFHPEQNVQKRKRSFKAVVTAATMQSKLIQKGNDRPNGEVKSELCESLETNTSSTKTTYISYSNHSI
- EXPERIMENTAL PROTOCOL: mGluR8 Gi/Go-coupled signaling modulation – cell-based, rat, thallium flux, HTS, primary screen (AID 488969)
- CONDITIONS USED: HEK293 rat mGluR8, GIRK thallium flux, FluoZin2; at 10 µM; stronger effect = higher value; submaximal glutamate (EC20) added with thallium
Whole data set: some 110,000 compounds, median “z-score” near -0.1, cut for the highest 2% near 2. Shown is part of a subset that was picked to be rich in the highest values.
Hi, to clarify the labels: YES covers z-score from -0.08 upward, NO covers anything below -0.08.

compound="CC(C)(C)C1CCc2c(C(=O)N/N=C/c3cccs3)csc2C1 (centres undefined)" assigned_label=YES

Check the entry Cc1cccc(C(C)(C)C)c1OCCOCCN1CCCC1 : does z-score equal or exceed -0.08?
YES

Check the entry C/C(CCC12CC3CC(CC(C3)C1)C2)=N\NC(N)=S : does z-score equal or exceed -0.08?
NO

Check the entry COC(=O)c1ccc(CSc2nnc(Nc3ccc(OC)cc3)s2)o1 : does z-score equal or exceed -0.08?
YES

Check the entry N/C(Cc1cccs1)=N\OC(=O)COc1ccccc1 : does z-score equal or exceed -0.08?
NO

Check the entry Cc1n[nH]c(C)c1SCC(=O)Nc1ccc(F)cc1 : does z-score equal or exceed -0.08?
YES

----------
The reader will find reported z-score values listed item by item below.
- TARGET ENTITY: Metabotropic glutamate receptor 8 (Rattus norvegicus) (UniProt P70579)
- EXPERIMENTAL PROTOCOL: mGluR8 Gi/Go-coupled signaling modulation – cell-based, rat, thallium flux, HTS, primary screen (AID 488969)
- CONDITIONS USED: HEK293 rat mGluR8, GIRK thallium flux, FluoZin2; at 10 µM; stronger effect = higher value; submaximal glutamate (EC20) added with thallium
The full ranking holds about 110,000 compounds; the median of “z-score” is about -0.1, and the highest 2% start at about 2. This is one part of a sample in which the highest values are shown more often than they occur.
Respond numerically, and do not add a unit to the figure.

compound="Fc1ccccc1CNCCC(Cc1ccccc1)c1ccc2c(c1)OCO2 (centres undefined)" property_measured=z-score number=0.733
compound=CCOC(=O)c1cc(-c2ccc(OC)cc2)nc2c1c(C)nn2CCC#N property_measured=z-score number=-0.93

The recorded z-score for O=C(O)CN=C(NS(=O)(=O)c1ccccc1)c1ccccc1 is 4.61

The recorded z-score for Cn1c(=O)[nH]c2cc(Cl)cnc21 is 0.0453

----------
- TARGET ENTITY: Metabotropic glutamate receptor 8 (Rattus norvegicus)
- EXPERIMENTAL PROTOCOL: mGluR8 Gi/Go-coupled signaling modulation – cell-based, rat, thallium flux, HTS, primary screen (AID 488969)
- CONDITIONS USED: HEK293 rat mGluR8, GIRK (G protein-gated inwardly rectifying potassium channel) thallium flux, FluoZin2; at 10 µM; stronger effect = higher value; submaximal glutamate (EC20) added with thallium
Whole data set: some 110,000 compounds, median “z-score” near -0.1, cut for the highest 2% near 2. The full list was thinned out, with the highest values kept by preference.
Hi, to clarify the labels: label 1 covers z-score from 0.08 upward, label 0 covers anything below 0.08.

molecule="O=C(O)CC(Cc1ccccc1)c1ccc2c(c1)OCO2 (stereo unspecified)" target_entity="Metabotropic glutamate receptor 8 (Rattus norvegicus)" assigned_label="label 1"
molecule=CN1CCN(C(=O)c2cc(-c3ccccc3)on2)CC1 target_entity="Metabotropic glutamate receptor 8 (Rattus norvegicus)" assigned_label="label 1"
molecule=Cc1cc(C(=O)N2CCN(CCc3ccccc3)CC2)no1 target_entity="Metabotropic glutamate receptor 8 (Rattus norvegicus)" assigned_label="label 1"
molecule="CC(Sc1ccccc1)C(=O)Nc1ccc(S(=O)(=O)N2CCOCC2)cc1 (stereo unspecified)" target_entity="Metabotropic glutamate receptor 8 (Rattus norvegicus)" assigned_label="label 1"
molecule="Cc1ccc(SC(C)C(=O)Nc2ccc(S(=O)(=O)N3CCOCC3)cc2)cc1 (stereo unspecified)" target_entity="Metabotropic glutamate receptor 8 (Rattus norvegicus)" assigned_label="label 1"

Check the entry Cc1nn(-c2cccc(Cl)c2)c2c1C(c1cccnc1)C(C#N)=C(N)O2 (stereo unspecified) : does z-score equal or exceed 0.08?
label 0

Check the entry Cc1ccc(-c2cc(C(=O)N3CCCC3)no2)cc1 : does z-score equal or exceed 0.08?
label 0

Check the entry CC1(C)CC2CC(C)(CN2C(=O)NC(=O)c2ccccc2)C1 (stereo unspecified) : does z-score equal or exceed 0.08?
label 0

Check the entry Cc1noc(C)c1C(=O)N1CCN(CCc2ccccc2)CC1 : does z-score equal or exceed 0.08?
label 0

Check the entry CC1(C)CC2CC(C)(CN2C(=S)NC(=O)c2ccccc2Cl)C1 (stereo unspecified) : does z-score equal or exceed 0.08?
label 1
